Taken from patent US20160326142A1.

Here's what we have: pKi numbers for ITK (Homo sapiens, UniProt Q08881).
Just so you know, pKi here is -log10 of the concentration in molar units; reply with that number alone.

MOLECULE	ASSAY_RESULT
CC1(C)CCc2c(C(=O)Nc3cnn(C(CO)c4cccnc4)c3)n[nH]c2C1 (single isomer, unassigned) [Example 81b]	8.52

Exercise: // lookup pKi | system=ITK (Homo sapiens, UniProt Q08881) | key= CC1(C)CCc2c(C(=O)Nc3cnn(C(CN4CCOCC4)c4ccccc4)c3)n[nH]c2C1 (single isomer, unassigned) [Example 62b]
Key: 7.80

Exercise: // lookup pKi | system=ITK (Homo sapiens, UniProt Q08881) | key= CN(CCC(c1ccccc1)n1cc(NC(=O)c2n[nH]c3c2CCC(C)(C)C3)cn1)C1COC1 (single isomer, unassigned) [Example 58b]
Key: 9.22

Exercise: // lookup pKi | system=ITK (Homo sapiens, UniProt Q08881) | key= CC(c1cncc(F)c1)n1cc(NC(=O)c2n[nH]c3c2CCC(C)(C)C3)cn1 (single isomer, unassigned) [Example 108b]
Key: 8.30

Exercise: // lookup pKi | system=ITK (Homo sapiens, UniProt Q08881) | key= CC12Cc3[nH]nc(C(=O)Nc4cnn(C(CCS(C)(=O)=O)c5ccccc5)c4)c3CC1C2 (centres unmarked) [Example 69a]
Key: 8.70

Exercise: // lookup pKi | system=ITK (Homo sapiens, UniProt Q08881) | key= CC1CC(C(c2ccccc2)n2cc(NC(=O)c3n[nH]c4c3CCC(C)(C)C4)cn2)CCS1(=O)=O (single isomer, unassigned) [Example 139g]
Key: 8.10
